This listing pairs molecules with measured IC50.
- measured.target: GCN2 (Homo sapiens, UniProt Q9P2K8)
- Sequence (Q9P2K8 whole entry): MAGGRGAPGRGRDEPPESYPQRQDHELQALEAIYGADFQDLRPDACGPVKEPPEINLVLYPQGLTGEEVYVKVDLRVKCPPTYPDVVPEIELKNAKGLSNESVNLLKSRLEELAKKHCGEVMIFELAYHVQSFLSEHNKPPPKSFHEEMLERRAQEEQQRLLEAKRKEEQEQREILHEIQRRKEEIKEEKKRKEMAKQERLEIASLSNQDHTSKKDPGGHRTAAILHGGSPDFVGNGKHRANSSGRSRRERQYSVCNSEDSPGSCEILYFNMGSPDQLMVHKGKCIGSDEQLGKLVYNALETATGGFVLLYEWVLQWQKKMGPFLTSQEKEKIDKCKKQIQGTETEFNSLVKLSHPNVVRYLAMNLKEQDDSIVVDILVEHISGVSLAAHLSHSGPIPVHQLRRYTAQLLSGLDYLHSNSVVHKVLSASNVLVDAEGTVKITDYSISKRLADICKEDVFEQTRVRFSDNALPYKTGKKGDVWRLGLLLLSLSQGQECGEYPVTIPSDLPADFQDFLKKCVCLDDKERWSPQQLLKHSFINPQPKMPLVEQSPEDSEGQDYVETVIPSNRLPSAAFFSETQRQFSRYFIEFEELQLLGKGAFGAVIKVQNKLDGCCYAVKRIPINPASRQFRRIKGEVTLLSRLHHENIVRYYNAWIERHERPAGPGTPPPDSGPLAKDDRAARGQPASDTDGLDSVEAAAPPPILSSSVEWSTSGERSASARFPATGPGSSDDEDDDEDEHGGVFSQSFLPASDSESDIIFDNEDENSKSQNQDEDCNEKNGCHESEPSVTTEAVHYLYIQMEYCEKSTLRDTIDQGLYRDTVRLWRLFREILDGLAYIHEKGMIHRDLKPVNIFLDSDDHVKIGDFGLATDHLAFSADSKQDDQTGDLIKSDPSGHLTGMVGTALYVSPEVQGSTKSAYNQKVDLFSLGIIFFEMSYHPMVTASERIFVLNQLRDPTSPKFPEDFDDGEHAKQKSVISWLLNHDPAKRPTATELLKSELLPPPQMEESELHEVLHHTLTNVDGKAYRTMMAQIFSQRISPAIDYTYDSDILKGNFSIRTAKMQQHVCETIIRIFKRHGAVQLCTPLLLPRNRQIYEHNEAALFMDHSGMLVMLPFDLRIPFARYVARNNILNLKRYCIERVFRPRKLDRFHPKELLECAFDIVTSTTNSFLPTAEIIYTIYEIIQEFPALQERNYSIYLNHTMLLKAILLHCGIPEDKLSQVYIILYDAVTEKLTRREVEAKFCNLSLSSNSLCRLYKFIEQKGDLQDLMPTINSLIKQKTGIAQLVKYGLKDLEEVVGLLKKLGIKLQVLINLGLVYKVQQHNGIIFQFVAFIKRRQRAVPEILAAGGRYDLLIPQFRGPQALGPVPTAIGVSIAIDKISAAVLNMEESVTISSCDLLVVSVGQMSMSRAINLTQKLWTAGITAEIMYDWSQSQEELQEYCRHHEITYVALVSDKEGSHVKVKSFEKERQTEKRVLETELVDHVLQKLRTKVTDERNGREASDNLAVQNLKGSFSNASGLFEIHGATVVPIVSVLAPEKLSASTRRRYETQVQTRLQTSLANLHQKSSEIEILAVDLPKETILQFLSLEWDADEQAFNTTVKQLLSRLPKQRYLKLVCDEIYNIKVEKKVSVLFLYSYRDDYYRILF
- assay.notes: GCN2 enzymatic endpoint assay: phosphorylation of GFP-eIF2α measured by TR-FRET (Lanthascreen)
- Assay type: biochemical
- stated.conditions: tested as described in Example 77; compound and/or hydrochloride, dihydrochloride or trifluoroacetic acid salt; read-out: IC 50 Activity

Supply reported IC50 belonging to this molecule: `CNC(=O)[C@]1(C)CC[C@@H](Nc2ncc3c(Br)nn(-c4cc(CCC(=O)O)c5ncccc5c4)c3n2)C1`
< 25 nM

Return IC50 (reported value) for this molecule: `CNC(=O)[C@]1(C)CC[C@@H](Nc2ncc3c(Br)nn(-c4ccc(-c5cnc(C)o5)cc4)c3n2)C1`
25 to 200 nM

Determine its reported IC50: `COCCNC(=O)[C@@]1(C)CC[C@@H](Nc2ncc3c(Br)nn(-c4ccc5ncccc5c4)c3n2)C1`
500 to 1000 nM

Please supply the value of reported IC50 for the item `CNC(=O)[C@]1(C)CC[C@@H](Nc2ncc3c(Br)nn(-c4cc(C5=CCNC5)c5ncccc5c4)c3n2)C1`
25 to 200 nM
